Listing of entries alongside the reported composite z-score.
- method: probe aInhba binding on compound microarray – biochemical, small-molecule microarray, 635/667 nm fluorescence, primary screen (AID 1148);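 further: score merges 667nm spot fluorescence with signal-to-noise for antibody binding to printed compounds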
- condition: higher = more signal
Give only the figure.

compound	composite z-score
CCCCCN1CC=CC23O[C@@H]4C=CCCOC(=O)C4[C@H]2C(=O)N(CCCO)[C@@H]3C1=O (stereo not given in full)	-0.128
CCCNC(=O)[C@@]1(C)c2ccccc2C(=O)N(Cc2ccc(OC(F)(F)F)cc2)[C@H]1c1ccc(CO)cc1	0.249
COc1ccc([Si](C)(C)[C@@H]2[C@@H](CCO)O[C@]3(C(=O)N(Cc4ccc(N5C(=O)c6cccc7cccc5c67)cc4)c4ccccc43)[C@H]2C)cc1	-0.0791
C=CCNC(=O)[C@H]1[C@@H]2C(=O)O[C@@H](c3ccccc3)[C@@H](c3ccccc3)N2[C@@H](c2ccc(O)cc2)[C@]12C(=O)Nc1ccc(C#Cc3ccc(OC)cc3)cc12	-0.0523

Moving on to the next compound.
Exam item: Entry `C=C(C(=O)CC[C@@H](OC(C)=O)c1ccc(OCCO)cc1)C(C)C` has what composite z-score?
Marked response: -0.148
